Hello, the source for this data is PubChem BioAssay AID2060891, in case you need it.

- Test system: K98450-129-R-PDC complex spheroid growth, percent test/control
- Run Description: Anticancer human tumor K98450-129-R-PDC patient-derived colon adenocarcinoma cell line growth inhibition [RAS]
- Condition Notes: curve of first compound; second compound 0.316 µM
Measured Attribute: log10(IC50) (log10 of the value in µM)
Values are log10 of IC50 in µM.

Query: Fill blank: measured log10(IC50) of the compound CCc1c2c(nc3ccc(O)cc13)-c1cc3c(c(=O)n1C2)COC(=O)[C@]3(O)CC + C#Cc1c(F)ccc2cc(O)cc(-c3ncc4c(N5CC6CCC(C5)N6)nc(OCC56CCCN5CC(F)C6)nc4c3F)c12 is ____.
Response: -1.32

Query: Fill blank: measured log10(IC50) of the compound NC1c2ccccc2OC12CCN(c1cnc3c(N4CCCc5ncccc54)n[nH]c3n1)CC2 (stereo not given) + C#Cc1c(F)ccc2cc(O)cc(-c3ncc4c(N5CC6CCC(C5)N6)nc(OCC56CCCN5CC(F)C6)nc4c3F)c12 is ____.
Response: -0.78

Query: Fill blank: measured log10(IC50) of the compound C=CC(=O)Nc1cc(Nc2nccc(-c3cn(C)c4ccccc34)n2)c(OC)cc1N(C)CCN(C)C + C#Cc1c(F)ccc2cc(O)cc(-c3ncc4c(N5CC6CCC(C5)N6)nc(OCC56CCCN5CC(F)C6)nc4c3F)c12 is ____.
Response: -0.23

Query: Fill blank: measured log10(IC50) of the compound C=CC(=O)N1CCN(c2nc(OCC3CCCN3C)nc3c(F)c(-c4nc(N)cc(C)c4C(F)(F)F)c(Cl)cc23)C(C)C1 (stereo not given) + C#Cc1c(F)ccc2cc(O)cc(-c3ncc4c(N5CC6CCC(C5)N6)nc(OCC56CCCN5CC(F)C6)nc4c3F)c12 is ____.
Response: -0.86

Query: Fill blank: measured log10(IC50) of the compound CCC(CC)c1cc(NC2CCC(N)C2)n2nccc2n1 (stereo not given) + C#Cc1c(F)ccc2cc(O)cc(-c3ncc4c(N5CC6CCC(C5)N6)nc(OCC56CCCN5CC(F)C6)nc4c3F)c12 is ____.
Response: 0.79

---

- System: K98450-129-R-PDC complex spheroid growth, percent test/control
- Run Description: Anticancer human tumor K98450-129-R-PDC cell line growth inhibition [RAS];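 further: spheroids exposed to agents for seven days before the viability readout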;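 on viability, T/C: luminescence used as a proxy for viable cell amount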
- Condition Notes: compound 0.1 µM; stronger effect = lower value
Exercise: state measured viability, T/C for each of the molecules provided.

Query: Fill blank: measured viability, T/C of the molecule `CCN1CCN(Cc2ccc(Nc3ncc(F)c(-c4cc(F)c5nc(C)n(C(C)C)c5c4)n3)nc2)CC1` is ____.
Response: 97.3% [middle of 4 runs]

Query: Fill blank: measured viability, T/C of the molecule C#Cc1c(F)ccc2cc(O)cc(-c3ncc4c(N5CC6CCC(C5)N6)nc(OCC56CCCN5CC(F)C6)nc4c3F)c12 (stereo not given) is ____.
Response: 105% [middle of 7 runs]

Query: Fill blank: measured viability, T/C of the molecule `O=C(c1ccc(F)c(F)c1Nc1ccc(I)cc1F)N1CC(O)([C@@H]2CCCCN2)C1` is ____.
Response: 82.3% [middle of 4 runs]

Query: Fill blank: measured viability, T/C of the molecule CC(C)NCC(C(=O)N1CCN(c2ncnc3c2C(C)CC3O)CC1)c1ccc(Cl)cc1 (stereo not given) is ____.
Response: 97.1% [middle of 4 runs]

Query: Fill blank: measured viability, T/C of the molecule Cc1nc(N2CCC3(CC2)COC(C)C3N)c(CO)nc1Sc1ccnc(N)c1Cl (stereo not given) is ____.
Response: 92.8% [middle of 4 runs]

---

- Tested on: K98450-129-R-PDC complex spheroid growth, percent test/control
- Run Description: Anticancer human tumor K98450-129-R-PDC cell line growth inhibition [RAS]; active = viability on the fitted dose curve at most 10% of control; inactive = the rest;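 further: spheroids exposed to agents for seven days before the viability readout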
- Condition Notes: second compound 0.00949 µM; first compound 10 µM
I would appreciate it if you answered using one of these outcomes: active, inactive

Query: Please state the recorded outcome for this compound: NC1c2ccccc2OC12CCN(c1cnc3c(N4CCCc5ncccc54)n[nH]c3n1)CC2 (configuration not stated) + CCn1c(-c2cccnc2C(C)OC)c2c3cc(ccc31)N1CCOC(CC(NC(=O)C(C(C)C)N(C)C(=O)C3(F)CCN(C(=O)C#CC(C)(C)N(C)C)CC3)C(=O)N3CCCC(N3)C(=O)OCC(C)(C)C2)C1
Response: active

Query: Please state the recorded outcome for this compound: CCC(CC)c1cc(NC2CCC(N)C2)n2nccc2n1 (configuration not stated) + CCn1c(-c2cc(N3CCN(C)CC3)cnc2C(C)OC)c2c3cc(ccc31)-c1csc(n1)CC(NC(=O)C1CC1C)C(=O)N1CCCC(N1)C(=O)OCC(C)(C)C2
Response: inactive

---

- Test system: K98450-129-R-PDC complex spheroid growth, percent test/control
- Run Description: Anticancer human tumor K98450-129-R-PDC cell line growth inhibition [RAS];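 further: spheroids exposed to agents for seven days before the viability readout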;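 on viability, T/C: luminescence used as a proxy for viable cell amount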
- Condition Notes: second compound 0.0949 µM; first compound 0.00316 µM; stronger effect = lower value
Measured Attribute: viability, T/C (%)
Report the figure in % without appending any unit label.

Query: Fill blank: measured viability, T/C of the compound CCN1CCN(Cc2ccc(Nc3ncc(F)c(-c4cc(F)c5nc(C)n(C(C)C)c5c4)n3)nc2)CC1 + CCn1c(-c2cc(N3CCN(C)CC3)cnc2C(C)OC)c2c3cc(ccc31)-c1csc(n1)CC(NC(=O)C1CC1C)C(=O)N1CCCC(N1)C(=O)OCC(C)(C)C2 is ____.
Response: 18.8

Query: Fill blank: measured viability, T/C of the compound O=C(c1ccc(F)c(F)c1Nc1ccc(I)cc1F)N1CC(O)([C@@H]2CCCCN2)C1 + CCn1c(-c2cccnc2C(C)OC)c2c3cc(ccc31)N1CCOC(CC(NC(=O)C(C(C)C)N(C)C(=O)C3(F)CCN(C(=O)C#CC(C)(C)N(C)C)CC3)C(=O)N3CCCC(N3)C(=O)OCC(C)(C)C2)C1 is ____.
Response: 28.3

Query: Fill blank: measured viability, T/C of the compound Nc1ccn(C2OC(CO)C(O)C2(F)F)c(=O)n1 (stereo not drawn) + CCn1c(-c2cc(N3CCN(C)CC3)cnc2C(C)OC)c2c3cc(ccc31)-c1csc(n1)CC(NC(=O)C1CC1C)C(=O)N1CCCC(N1)C(=O)OCC(C)(C)C2 is ____.
Response: 21.1

Query: Fill blank: measured viability, T/C of the compound CC(C)n1nc(-c2ccc3oc(N)nc3c2)c2c(N)ncnc21 + CCn1c(-c2cccnc2C(C)OC)c2c3cc(ccc31)N1CCOC(CC(NC(=O)C(C(C)C)N(C)C(=O)C3(F)CCN(C(=O)C#CC(C)(C)N(C)C)CC3)C(=O)N3CCCC(N3)C(=O)OCC(C)(C)C2)C1 is ____.
Response: 32.6

Query: Fill blank: measured viability, T/C of the compound CCN1CCN(Cc2ccc(Nc3ncc(F)c(-c4cc(F)c5nc(C)n(C(C)C)c5c4)n3)nc2)CC1 + CCn1c(-c2cccnc2C(C)OC)c2c3cc(ccc31)N1CCOC(CC(NC(=O)C(C(C)C)N(C)C(=O)C3(F)CCN(C(=O)C#CC(C)(C)N(C)C)CC3)C(=O)N3CCCC(N3)C(=O)OCC(C)(C)C2)C1 is ____.
Response: 39.6

Query: Fill blank: measured viability, T/C of the compound C=CC(=O)Nc1cc(Nc2nccc(-c3cn(C)c4ccccc34)n2)c(OC)cc1N(C)CCN(C)C + CCn1c(-c2cccnc2C(C)OC)c2c3cc(ccc31)N1CCOC(CC(NC(=O)C(C(C)C)N(C)C(=O)C3(F)CCN(C(=O)C#CC(C)(C)N(C)C)CC3)C(=O)N3CCCC(N3)C(=O)OCC(C)(C)C2)C1 is ____.
Response: 34

Query: Fill blank: measured viability, T/C of the compound C=CC(=O)N1CCN(c2nc(OCC3CCCN3C)nc3c(F)c(-c4nc(N)cc(C)c4C(F)(F)F)c(Cl)cc23)C(C)C1 (stereo not drawn) + CCn1c(-c2cccnc2C(C)OC)c2c3cc(ccc31)N1CCOC(CC(NC(=O)C(C(C)C)N(C)C(=O)C3(F)CCN(C(=O)C#CC(C)(C)N(C)C)CC3)C(=O)N3CCCC(N3)C(=O)OCC(C)(C)C2)C1 is ____.
Response: 36.6

Query: Fill blank: measured viability, T/C of the compound Nc1ccn(C2OC(CO)C(O)C2(F)F)c(=O)n1 (stereo not drawn) + CCn1c(-c2cccnc2C(C)OC)c2c3cc(ccc31)N1CCOC(CC(NC(=O)C(C(C)C)N(C)C(=O)C3(F)CCN(C(=O)C#CC(C)(C)N(C)C)CC3)C(=O)N3CCCC(N3)C(=O)OCC(C)(C)C2)C1 is ____.
Response: 32.4

---

Exercise: state measured viability, T/C for each of the molecules provided.
- Tested on: K98450-129-R-PDC complex spheroid growth, percent test/control
- Run Description: Anticancer human tumor K98450-129-R-PDC cell line growth inhibition [RAS];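 further: spheroids exposed to agents for seven days before the viability readout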;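 on viability, T/C: luminescence used as a proxy for viable cell amount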
- Condition Notes: second compound 0.00949 µM; first compound 3.16 µM; stronger effect = lower value
Report the figure in % without appending any unit label.

Query: Fill blank: measured viability, T/C of the molecule CC(C)NCC(C(=O)N1CCN(c2ncnc3c2C(C)CC3O)CC1)c1ccc(Cl)cc1 (centres undefined) + CCn1c(-c2cc(N3CCN(C)CC3)cnc2C(C)OC)c2c3cc(ccc31)-c1csc(n1)CC(NC(=O)C1CC1C)C(=O)N1CCCC(N1)C(=O)OCC(C)(C)C2 is ____.
Response: 77.4

Query: Fill blank: measured viability, T/C of the molecule C[C@@H](NC(=O)c1ncnc(N)c1Cl)c1ncc(C(=O)Nc2cc(C(F)(F)F)c(Cl)cn2)s1 + CCn1c(-c2cccnc2C(C)OC)c2c3cc(ccc31)N1CCOC(CC(NC(=O)C(C(C)C)N(C)C(=O)C3(F)CCN(C(=O)C#CC(C)(C)N(C)C)CC3)C(=O)N3CCCC(N3)C(=O)OCC(C)(C)C2)C1 is ____.
Response: 59.2

Query: Fill blank: measured viability, T/C of the molecule Cc1nc(N2CCC3(CC2)COC(C)C3N)c(CO)nc1Sc1ccnc(N)c1Cl (centres undefined) + CCn1c(-c2cc(N3CCN(C)CC3)cnc2C(C)OC)c2c3cc(ccc31)-c1csc(n1)CC(NC(=O)C1CC1C)C(=O)N1CCCC(N1)C(=O)OCC(C)(C)C2 is ____.
Response: 8.78

Query: Fill blank: measured viability, T/C of the molecule CCC(CC)c1cc(NC2CCC(N)C2)n2nccc2n1 (centres undefined) + CCn1c(-c2cc(N3CCN(C)CC3)cnc2C(C)OC)c2c3cc(ccc31)-c1csc(n1)CC(NC(=O)C1CC1C)C(=O)N1CCCC(N1)C(=O)OCC(C)(C)C2 is ____.
Response: 48.6
